Lab note: IC50 readings collected with UniProtKB P00747 for the following compounds.
Sequence (P00747 97-580 limits assumed): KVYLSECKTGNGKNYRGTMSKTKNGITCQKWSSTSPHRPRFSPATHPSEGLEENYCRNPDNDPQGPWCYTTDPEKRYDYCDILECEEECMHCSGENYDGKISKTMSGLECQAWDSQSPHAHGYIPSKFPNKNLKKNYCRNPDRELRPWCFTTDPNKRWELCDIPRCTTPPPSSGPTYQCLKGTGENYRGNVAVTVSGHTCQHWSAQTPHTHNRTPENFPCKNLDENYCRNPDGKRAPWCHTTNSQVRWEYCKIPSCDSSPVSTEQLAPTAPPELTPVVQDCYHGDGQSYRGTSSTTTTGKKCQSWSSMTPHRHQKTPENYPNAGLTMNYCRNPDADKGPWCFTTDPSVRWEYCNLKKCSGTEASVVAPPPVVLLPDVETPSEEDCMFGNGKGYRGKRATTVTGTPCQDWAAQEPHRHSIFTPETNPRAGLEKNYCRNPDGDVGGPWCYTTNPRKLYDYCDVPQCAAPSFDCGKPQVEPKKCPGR
Sequence (P00747 581-810 limits assumed): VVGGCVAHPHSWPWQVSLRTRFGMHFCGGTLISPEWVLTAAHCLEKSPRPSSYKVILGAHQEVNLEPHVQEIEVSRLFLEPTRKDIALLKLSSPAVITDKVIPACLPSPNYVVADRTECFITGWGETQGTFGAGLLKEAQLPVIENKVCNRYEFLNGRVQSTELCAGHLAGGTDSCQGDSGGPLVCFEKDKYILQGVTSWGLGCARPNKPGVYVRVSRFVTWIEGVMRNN

{"sample_smiles": "CC[C@@H](C(=O)Nc1ccc(C(N)=O)c(F)c1)n1cc(OC)c(-c2cc(Cl)ccc2-n2cc(C(F)(F)F)nn2)cc1=O", "IC50": "> 1 µM"}
{"sample_smiles": "CC[C@@H](c1cc(-c2ccc(N)nc2F)ccn1)n1cc(OC)c(-c2cc(Cl)ccc2-n2cnnn2)cc1=O", "IC50": "> 1 µM"}
{"sample_smiles": "COc1cn(Cc2cc(-c3ccc(N)nc3)ccn2)c(=O)cc1-c1cc(Cl)ccc1-n1cnnn1", "IC50": "> 1 µM"}
{"sample_smiles": "COc1cn(Cc2cc(-c3ccc(N)nc3F)ccn2)c(=O)cc1-c1cc(Cl)ccc1-n1cnnn1", "IC50": "> 1 µM"}
